System: CCRIS mutagenicity, Ames/micronucleus/aberration tests
ASSAY OVERVIEW: CCRIS mutagenicity studies
DETAILS: Test System: AMES SALMONELLA TYPHIMURIUM; Strain/Indicator: TA98(1,8-DNP6); Metabolic Activation: S-9; Method: STANDARD PLATE
The source made the active and inactive calls. No rule for the calls is given here.
OUTCOME MEASURE: mutagenic call

Nc1ccc(-c2ccc(N)c(F)c2)cc1F ... active; positive
Nc1ccc(-c2ccc(N)c(Br)c2)cc1Br ... active; positive
Nc1ccc(/C=C/c2ccccc2)cc1 ... active; positive

* * *

System: CCRIS mutagenicity, Ames/micronucleus/aberration tests
ASSAY OVERVIEW: CCRIS mutagenicity studies
DETAILS: Test System: AMES SALMONELLA TYPHIMURIUM; Strain/Indicator: TA100; Metabolic Activation: NONE; Method: PREINCUBATION
Active and inactive are the calls of the source. No rule for the calls is given here.
Use one of these outcomes when replying: active, inactive

O=[N+]([O-])c1ccc(Nc2ncnc3c2ncn3-c2ccc([N+](=O)[O-])cc2)cc1 ... inactive
Cc1ccc(Br)cc1 ... inactive
CC(=O)Oc1ccc2c(c1)OC1(C)OOC21C (centres undefined) ... active

Assay result, entry `CC(C)(N=NC(C)(C)C(=N)N)C(=N)N` — outcome? active

Please indicate how the test categorized CC(C)C(=O)OCC(C)(C)C(O)C(C)C (centres undefined) . inactive

// param item: `[CH3][Hg][Cl]` ; yields the recorded call inactive

Please indicate how the test categorized `c1ccc2c(c1)-c1cccc3c1c-2cc1ccccc13` . inactive

Field: outcome | Entry: Cc1cc(O)c2c(c1O)C(=O)C13C(=C2O)C(=O)C2C(O)C1C1C(O)C3C(=O)C3=C(O)c4c(O)cc(C)c(O)c4C(=O)C321 (centres undefined) inactive

Check the results log: what was the call for `Cc1ccccc1Br` ? inactive

For `Cc1ccc(C)o1` , what call appears in the results of this test? inactive

Check the results log: what was the call for COC(=O)C1=C(C)NC(C)=C(C(=O)OCCc2ccc(N3CCN(C(c4ccccc4)c4ccccc4)CC3)cc2)C1c1cccc([N+](=O)[O-])c1 (centres undefined) ? inactive

* * *

Tested on: CCRIS mutagenicity, Ames/micronucleus/aberration tests
ASSAY OVERVIEW: CCRIS mutagenicity studies
DETAILS: Test System: AMES SALMONELLA TYPHIMURIUM; Strain/Indicator: TA1538; Metabolic Activation: HAMSTER, LIVER, S-9, AROCLOR 1254; Method: STANDARD PLATE
Excerpt: The CCRIS database contains chemical records with carcinogenicity, mutagenicity, tumor promotion, and tumor inhibition test results. It was developed by the National Cancer Institute (NCI). Data are derived from studies cited in primary journals, current awareness tools, NCI reports, and other sources. Test results have been reviewed by experts in carcinogenesis and mutagenesis. CCRIS provides historical information from the years 1985 - 2011. It is no longer updated. […]
Calls of active or inactive are those of the source. How the calls were made is not given here.
Would you mind answering with one of these outcomes? yes = active, no = inactive

# example entries with known answers
O=NN1CCC[C@H]1c1cccnc1 ... no
Nc1ccc(N=Nc2ccc3c(c2)C(=O)/C(=N/Nc2ccc(Nc4ccc(N/N=C5/C(=O)c6cc(N=Nc7ccc(N)cc7N)ccc6C=C5S(=O)(=O)O)cc4S(=O)(=O)O)cc2)C(S(=O)(=O)O)=C3)c(N)c1 ... yes
CCCCC=O ... no
NCc1cccc(CN)c1 ... no

How was `O=C(Cl)c1ccc([N+](=O)[O-])cc1` classified in this test? no

Hello, I am checking results. What call was entered for `C[C@H]1CCCC(=O)CCC/C=C/c2cc(O)cc(O)c2C(=O)O1` ? no

Please share the test call associated with `Nc1ncc([N+](=O)[O-])s1` . no

Just curious, what result did `O=C1c2ccccc2CCc2ccccc21` get here? no

I would be grateful if you could indicate the recorded call for `CN(C)C(=O)Oc1ccc[n+](C)c1` . no

Answer briefly: the call reported for `Cc1cc(C)c(S(=O)(=O)O)cc1N=Nc1cc(S(=O)(=O)O)c2ccccc2c1O` in this assay. no

Outcome logged for `Clc1cc(Cl)c(Cl)cc1Cl` in this assay: no

Call for entry `O=C(CCc1ccc(O)cc1)c1c(O)cc(O)cc1O` : no
